These entries and their values trace back to patent US12709622B2.

test description: Alizarin Red S (ARS) displacement assay, binding to lactate
experimental setup: ARS displacement, 0.1M phosphate buffer, pH 7.4, 25° C.
property label: Kd (mM)

Some entries whose results are on file:
>>> recorded_measurement("O=C(O)CN(CCCCCNC(=O)c1ccc(B(O)O)c(F)c1)C(=O)c1ccc(B(O)O)c(F)c1")
70.3
>>> recorded_measurement("NC(=O)[C@H](CNC(=O)c1cc2c(c(C(F)(F)F)c1)COB2O)NC(=O)c1cc(B(O)O)cc([N+](=O)[O-])c1")
74.1

(P) O=C(O)CN(Cc1cccc(CNC(=O)c2ccc(B(O)O)c(F)c2)c1)C(=O)c1ccc(B(O)O)c(F)c1
(Q) CS(=O)(=O)c1ccc(B(O)O)cc1C(=O)N[C@@H]1C[C@H](C(N)=O)N(C(=O)c2cc(B(O)O)ccc2S(C)(=O)=O)C1
(R) NC(=O)CN(C(=O)c1ccc2c(c1)B(O)OC2)[C@@H]1CCCC[C@H]1NC(=O)c1ccc2c(c1)B(O)OC2
Order the entries by their reported Kd, beginning at the minimum. Your task in answering is to list the labels in the requested order.
Q, R, P
(Q: 38.3 mM, R: 59.8 mM, P: 97.3 mM)
